TGI for assorted compounds
tested on: HOP-18 NSCLC; assay: NCI tumour cell line growth inhibition, 48 h

Solved entries (count: 5):
Prompt line: Which TGI reading was recorded for the compound NC1=NN(c2ccccc2)C(=O)C1C(=O)CCC(=O)Nc1cccc(C(F)(F)F)c1 (stereo unspecified) ?
Response line: > 100 µM

Prompt line: Quick one: TGI of C=CCCCCCCCCC(=O)NS(=O)(=O)c1ccccc1 ?
Response line: > 100 µM

Prompt line: Give its TGI value. Item: Cc1ccc(S(=O)(=O)n2c(-c3ccccc3)c(-c3ccccc3)c3ccccc32)cc1
Response line: > 100 µM

Prompt line: State the recorded TGI for this entry: CCC[CH2][Sn]1([CH2]CCC)[O]C(=O)C(C(C)C)N=Cc2ccccc2[O]1 (stereo unspecified)
Response line: 1.92 µM

Prompt line: # lookup: TGI of N#Cc1nc(C2OC(COC(=O)c3ccccc3)C(OC(=O)c3ccccc3)C2OC(=O)c2ccccc2)oc1N (stereo unspecified)
Response line: > 100 µM

// next entry
Prompt line: For the compound CC(C)(C)OC(=O)Cc1ccc2c(ccn2Cc2ccccc2)c1 , what TGI is on record?
Response line: > 100 µM
